Tested on: Escherichia coli TOP10
Procedure Details: shrunken log2 fold change of peptide-encoding DNA abundance (4.5 h post-induction vs induction); higher = less antimicrobial activity (less host growth inhibition)
Experimental Setup: time post-induction: 4.5 h; library: site-saturation at positions 5, 18, 19, 20
// values below are reported shrunken log2 fold change
Respond numerically, and do not add a unit to the figure.

# count of solved cases: 5
Q) May I ask what shrunken log2 fold change has been recorded for `RRIRRRPPRLPRPRPRPGITPRP` ?
A) -0.0143

Q) May I ask what shrunken log2 fold change has been recorded for `RRIRNRPPRLPRPRPRPRVVPRP` ?
A) 0.078

Q) May I ask what shrunken log2 fold change has been recorded for `RRIRGRPPRLPRPRPRPVSIPRP` ?
A) 0.00516

Q) May I ask what shrunken log2 fold change has been recorded for `RRIRNRPPRLPRPRPRPCIIPRP` ?
A) -0.0176

Q) May I ask what shrunken log2 fold change has been recorded for `RRIRARPPRLPRPRPRPGWYPRP` ?
A) 0.437

More entries:
Q) May I ask what shrunken log2 fold change has been recorded for `RRIRQRPPRLPRPRPRPHHVPRP` ?
A) -0.0277

Q) May I ask what shrunken log2 fold change has been recorded for `RRIRLRPPRLPRPRPRPMWVPRP` ?
A) -0.314

Q) May I ask what shrunken log2 fold change has been recorded for `RRIRFRPPRLPRPRPRPIQSPRP` ?
A) -0.127

Q) May I ask what shrunken log2 fold change has been recorded for `RRIRVRPPRLPRPRPRPCAFPRP` ?
A) -0.264

Q) May I ask what shrunken log2 fold change has been recorded for `RRIRLRPPRLPRPRPRPNQSPRP` ?
A) -0.0737

* * *

Test system: Escherichia coli TOP10
Procedure Details: shrunken log2 fold change of peptide-encoding DNA abundance (4.5 h post-induction vs induction); higher = less antimicrobial activity (less host growth inhibition)
Experimental Setup: time post-induction: 4.5 h; library: site-saturation at positions 5, 18, 19, 20
The following ranges of shrunken log2 fold change define the classes used here: lower range: < -0.05; middle range: ≥ -0.05 and < 0.03; upper range: ≥ 0.03

Answered cases to consult:
Q) Assign a category based on measured shrunken log2 fold change for `RRIRCRPPRLPRPRPRPACNPRP` and give only the class name.
A) middle range

Q) Assign a category based on measured shrunken log2 fold change for `RRIRERPPRLPRPRPRPMSFPRP` and give only the class name.
A) lower range

Q) Assign a category based on measured shrunken log2 fold change for `RRIRARPPRLPRPRPRPNFHPRP` and give only the class name.
A) middle range

Q) Assign a category based on measured shrunken log2 fold change for `RRIRVRPPRLPRPRPRPHMSPRP` and give only the class name.
A) lower range

Q) Assign a category based on measured shrunken log2 fold change for `RRIRVRPPRLPRPRPRPIYGPRP` and give only the class name.
A) lower range

Q) Assign a category based on measured shrunken log2 fold change for `RRIRKRPPRLPRPRPRPSPAPRP` and give only the class name.
A) upper range

More entries:
Q) Assign a category based on measured shrunken log2 fold change for `RRIRQRPPRLPRPRPRPCFFPRP` and give only the class name.
A) lower range

Q) Assign a category based on measured shrunken log2 fold change for `RRIRRRPPRLPRPRPRPWQFPRP` and give only the class name.
A) middle range

* * *

Test system: Escherichia coli TOP10;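 note: peptides expressed intracellularly from a pBAD plasmid library in pooled LB shake-flask culture, induced with 0.3% L-arabinose, DNA abundance read by NGS, three biological replicates, DESeq2 with apeglm shrinkage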
Procedure Details: shrunken log2 fold change of peptide-encoding DNA abundance (4.5 h post-induction vs induction); higher = less antimicrobial activity (less host growth inhibition)
Experimental Setup: time post-induction: 4.5 h; library: site-saturation at positions 5, 18, 19, 20
// values below are reported shrunken log2 fold change
Respond numerically, and do not add a unit to the figure.

Q) May I ask what shrunken log2 fold change has been recorded for `RRIRKRPPRLPRPRPRPITTPRP` ?
A) -0.174

Q) May I ask what shrunken log2 fold change has been recorded for `RRIRNRPPRLPRPRPRPHKVPRP` ?
A) -0.513

Q) May I ask what shrunken log2 fold change has been recorded for `RRIRGRPPRLPRPRPRPDVVPRP` ?
A) 0.424

More entries:
Q) May I ask what shrunken log2 fold change has been recorded for `RRIRERPPRLPRPRPRPGVCPRP` ?
A) 0.155

Q) May I ask what shrunken log2 fold change has been recorded for `RRIRERPPRLPRPRPRPDPTPRP` ?
A) -0.0306

Q) May I ask what shrunken log2 fold change has been recorded for `RRIRHRPPRLPRPRPRPGVEPRP` ?
A) 0.0675

Q) May I ask what shrunken log2 fold change has been recorded for `RRIRARPPRLPRPRPRPVCGPRP` ?
A) 0.653

Q) May I ask what shrunken log2 fold change has been recorded for `RRIRFRPPRLPRPRPRPIWQPRP` ?
A) -0.146

Q) May I ask what shrunken log2 fold change has been recorded for `RRIRMRPPRLPRPRPRPPPQPRP` ?
A) 1.79

Q) May I ask what shrunken log2 fold change has been recorded for `RRIRRRPPRLPRPRPRPNKFPRP` ?
A) -0.246

Q) May I ask what shrunken log2 fold change has been recorded for `RRIRDRPPRLPRPRPRPVTIPRP` ?
A) -0.0184

Q) May I ask what shrunken log2 fold change has been recorded for `RRIRVRPPRLPRPRPRPLQCPRP` ?
A) -0.371

Q) May I ask what shrunken log2 fold change has been recorded for `RRIRIRPPRLPRPRPRPWLAPRP` ?
A) -0.12

Q) May I ask what shrunken log2 fold change has been recorded for `RRIRFRPPRLPRPRPRPWCKPRP` ?
A) -0.0278

Q) May I ask what shrunken log2 fold change has been recorded for `RRIRVRPPRLPRPRPRPHLKPRP` ?
A) -0.284
